- System: isolated rat soleus nerve-muscle preparations
- assayRemarks: Measurement of force in an in vitro model: recovery of nerve-stimulated contractile force after tubocurarine
- settings: 40 min, 50 μM of test compound, after 40 mins of compound exposure, tubocurarine (115 nM) for 90 minutes, read-out: Point increase (%): percentage increase of initial force that was restored
- Text: In one aspect, the invention relates to a method for recovery of force in muscles with neuromuscular dysfunction, said method comprising administering a compound or a composition as defined herein to a subject in need thereof. […] Recovery of force is quantified as the percentage of the force prior to tubocurarine that is recovered after addition of the compound. […]

{"compound": "COc1c(Cl)c(F)c2c(c1C(=O)O)CCCC2", "activation at 50 µM / %": 41}
{"compound": "COc1cc2c(c(C(=O)O)c1F)OCCC2Cc1ccccc1 (stereo not drawn)", "activation at 50 µM / %": 22}
{"compound": "O=C(O)c1c(Cl)c(F)cc2c1OCCC2", "activation at 50 µM / %": 48}
{"compound": "O=C(O)c1c(F)c(C2CC2)cc2c1CCCC2", "activation at 50 µM / %": 47}
{"compound": "Cc1cc2c(c(C(=O)O)c1Cl)C1CCC2C1 (stereo not drawn)", "activation at 50 µM / %": 38}
{"compound": "Cc1c(Cl)cc2c(c1C(=O)O)OCC2", "activation at 50 µM / %": 19}
{"compound": "Cc1cc2c(c(C(=O)O)c1Cl)CCCCC2", "activation at 50 µM / %": 20}
{"compound": "Cc1cc2c(c(C(=O)O)c1C)CCCC2", "activation at 50 µM / %": 43}
{"compound": "COc1cc2c(c(C(=O)O)c1Cl)CCCCC2", "activation at 50 µM / %": 43}
{"compound": "Cc1cc2c(c(C(=O)O)c1Cl)CCCC2", "activation at 50 µM / %": 39}
{"compound": "CCc1c(Cl)cc2c(c1C(=O)O)CCC2", "activation at 50 µM / %": 26}
{"compound": "O=C(O)c1c(F)c(C(F)(F)F)cc2c1CCCC2", "activation at 50 µM / %": 21}
{"compound": "Cc1c(Br)cc2c(c1C(=O)O)CCC2", "activation at 50 µM / %": 19}
{"compound": "O=C(O)c1c(F)c(F)cc2c1SCCC2", "activation at 50 µM / %": 47}
{"compound": "COc1c(C)cc2c(c1C(=O)O)CCC2", "activation at 50 µM / %": 37}

---

- target: CIC-1 ion channel (Rattus norvegicus)
- Sequence (P35524 whole entry): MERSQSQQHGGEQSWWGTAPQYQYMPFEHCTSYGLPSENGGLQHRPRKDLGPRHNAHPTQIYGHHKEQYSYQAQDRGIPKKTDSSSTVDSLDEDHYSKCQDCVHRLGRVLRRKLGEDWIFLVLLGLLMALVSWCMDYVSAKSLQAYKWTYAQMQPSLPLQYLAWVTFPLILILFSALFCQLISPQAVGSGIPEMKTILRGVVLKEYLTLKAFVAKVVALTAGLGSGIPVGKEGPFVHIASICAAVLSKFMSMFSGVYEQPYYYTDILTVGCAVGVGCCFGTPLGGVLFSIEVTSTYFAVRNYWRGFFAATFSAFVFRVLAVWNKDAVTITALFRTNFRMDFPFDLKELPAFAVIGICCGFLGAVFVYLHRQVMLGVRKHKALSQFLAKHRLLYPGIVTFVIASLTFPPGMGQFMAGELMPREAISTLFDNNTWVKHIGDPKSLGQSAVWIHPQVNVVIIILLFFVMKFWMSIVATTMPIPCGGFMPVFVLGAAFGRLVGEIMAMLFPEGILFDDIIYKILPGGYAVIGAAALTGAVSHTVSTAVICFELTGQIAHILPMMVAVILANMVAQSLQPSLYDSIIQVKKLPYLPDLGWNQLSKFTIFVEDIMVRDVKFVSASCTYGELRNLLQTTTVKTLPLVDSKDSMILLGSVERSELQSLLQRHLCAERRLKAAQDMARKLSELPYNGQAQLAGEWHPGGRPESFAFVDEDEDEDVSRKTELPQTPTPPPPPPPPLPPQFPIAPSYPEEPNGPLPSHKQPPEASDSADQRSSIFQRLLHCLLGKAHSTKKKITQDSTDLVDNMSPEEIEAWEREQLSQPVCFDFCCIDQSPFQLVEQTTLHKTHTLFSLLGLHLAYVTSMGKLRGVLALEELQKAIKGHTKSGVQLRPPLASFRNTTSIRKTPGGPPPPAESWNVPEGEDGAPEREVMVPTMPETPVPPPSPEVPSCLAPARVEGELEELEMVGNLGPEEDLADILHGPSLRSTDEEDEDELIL
- assayRemarks: Electrophysiological measurement of compound inhibition of CIC-1 in rat muscle (Gm in soleus fibres, three micro-electrodes)
- settings: Gm in individual fibres of whole rat soleus muscles, approx. 30° C., four increasing compound concentrations; read-out: Potency Range (EC50, inhibition of CIC-1 ion channel)

{"compound": "Cc1c(Cl)cc2c(c1C(=O)O)CCC2", "EC50": "10000 to 20000 nM"}
{"compound": "COc1c(F)cc2c(c1C(=O)O)CCCC2", "EC50": "200 to 2000 nM"}
{"compound": "COc1c(Cl)cc2c(c1C(=O)O)C1CCC2C1 (centres unmarked)", "EC50": "200 to 2000 nM"}
{"compound": "O=C(O)c1cc(Cl)cc2c1CCCC2", "EC50": "2000 to 10000 nM"}
{"compound": "O=C(O)c1c(F)c(F)cc2c1CCCC2", "EC50": "2000 to 10000 nM"}
{"compound": "CSc1c(Cl)cc2c(c1C(=O)O)CCCC2", "EC50": "200 to 2000 nM"}
{"compound": "O=C(O)c1c(F)c(Cl)cc2c1CCCS2", "EC50": "200 to 2000 nM"}
{"compound": "Cc1c(Cl)cc2c(c1C(=O)O)OCCC2", "EC50": "10000 to 20000 nM"}
{"compound": "O=C(O)c1c2c(cc(Cl)c1OC(F)F)CCCC2", "EC50": "200 to 2000 nM"}
{"compound": "Cc1c(Cl)cc2c(c1C(=O)O)CCCC2", "EC50": "2000 to 10000 nM"}
{"compound": "O=C(O)c1c(F)c(Cl)cc2c1N(Cc1ccsc1)CCC2", "EC50": "200 to 2000 nM"}
{"compound": "Cc1cc2c(c(C(=O)O)c1Cl)CCCC2", "EC50": "2000 to 10000 nM"}
{"compound": "COc1c(Cl)cc2c(c1C(=O)O)SCCC2", "EC50": "200 to 2000 nM"}
{"compound": "CC1(C)CCc2cc(Cl)cc(C(=O)O)c2O1", "EC50": "200 to 2000 nM"}
{"compound": "CSc1c(Cl)cc2c(c1C(=O)O)CCC2", "EC50": "2000 to 10000 nM"}
{"compound": "Cc1cc2c(c(C(=O)O)c1C)CCC2", "EC50": "10000 to 20000 nM"}
{"compound": "COc1c(Cl)cc2c(c1C(=O)O)CCC2", "EC50": "200 to 2000 nM"}
{"compound": "O=C(O)c1c(Cl)c(Cl)cc2c1CCCC2", "EC50": "200 to 2000 nM"}
{"compound": "Cc1c(Cl)cc2c(c1C(=O)O)C1CCC2C1 (centres unmarked)", "EC50": "10000 to 20000 nM"}
{"compound": "O=C(O)c1c(Cl)c(F)cc2c1OCCCC2", "EC50": "2000 to 10000 nM"}
{"compound": "C=Cc1c(Cl)cc2c(c1C(=O)O)CCCC2", "EC50": "200 to 2000 nM"}
{"compound": "COc1c(Cl)cc2c(c1C(=O)O)C1CCC2CC1", "EC50": "2000 to 10000 nM"}
{"compound": "Cc1cc2c(c(C(=O)O)c1C)CCCC2", "EC50": "10000 to 20000 nM"}
{"compound": "CCc1c(Cl)cc2c(c1C(=O)O)CCC2", "EC50": "10000 to 20000 nM"}
{"compound": "COc1c(Cl)cc2c(c1C(=O)O)C(F)(F)CCC2", "EC50": "2000 to 10000 nM"}
{"compound": "O=C(O)c1c(Cl)c(F)cc2c1N(Cc1ccccc1)CCC2", "EC50": "200 to 2000 nM"}
{"compound": "Cc1cc2c(c(C(=O)O)c1F)OCCC2", "EC50": "2000 to 10000 nM"}
{"compound": "COc1c(Cl)cc2c(c1C(=O)O)CCCC2(F)F", "EC50": "200 to 2000 nM"}
{"compound": "O=C(O)c1c(F)c(Cl)cc2c1CCCO2", "EC50": "200 to 2000 nM"}
{"compound": "O=C(O)c1c(F)c(Cl)cc2c1SCCC2", "EC50": "200 to 2000 nM"}
{"compound": "CN1CCCc2cc(Cl)c(F)c(C(=O)O)c21", "EC50": "200 to 2000 nM"}
{"compound": "O=C(O)c1c(Cl)c(F)cc2c1OCCC2", "EC50": "2000 to 10000 nM"}
{"compound": "COc1c(Cl)cc2c(c1C(=O)O)CCCCC2", "EC50": "200 to 2000 nM"}
{"compound": "COc1c(Cl)c(F)c2c(c1C(=O)O)CCCC2", "EC50": "200 to 2000 nM"}
{"compound": "CCc1cc2c(c(C(=O)O)c1F)CCCC2", "EC50": "2000 to 10000 nM"}
{"compound": "O=C(O)c1c(F)c(C2CC2)cc2c1CCCC2", "EC50": "10000 to 20000 nM"}
{"compound": "O=C(O)c1c(F)c(Cl)cc2c1CCC2", "EC50": "2000 to 10000 nM"}
{"compound": "O=C(O)c1c2c(cc(Cl)c1OC(F)F)CCC2", "EC50": "2000 to 10000 nM"}
